# Assay summary: Antioxidant activity assessed as DPPH radical scavenging activity at 50 uM after 30 mins
# Assay type: functional
Reported Activity values follow for various molecules
Quantity name: Activity (%)

COc1ccc(-c2cc3cccc(O)c3c(=O)o2)cc1O    17.8
CC(c1cc2ccccc2s1)N(O)C(N)=O (stereo unspecified)    33.6
O=c1oc(-c2ccc(O)cc2)cc2cccc(O)c12    12.6
O=c1oc(-c2ccccc2)cc2ccccc12    14
COc1cc(-c2cc3ccccc3c(=O)o2)cc(OC)c1OC    15.8
O=c1oc(-c2ccccc2)cc2cccc(O)c12    13.4
COc1cc(-c2cc3ccccc3c(=O)o2)ccc1O    47.8
O=c1oc(-c2ccc(O)cc2)cc2ccccc12    17
COc1ccc(-c2cc3ccccc3c(=O)o2)cc1O    20
COc1cc(O)c2c(=O)oc(-c3ccccc3)cc2c1    16.6
O=c1oc(-c2ccc(O)c(O)c2)cc2cccc(O)c12    49
COc1cc(O)c2c(=O)oc(-c3cc(OC)c(OC)c(OC)c3)cc2c1    15.4
COc1cc(-c2cc3cccc(O)c3c(=O)o2)ccc1O    36.2
O=C1O[C@H]([C@@H](O)CO)C(O)=C1O    82.2

----------
# Target: Prostaglandin E synthase (Homo sapiens, UniProt O14684)
# Sequence (O14684 whole entry): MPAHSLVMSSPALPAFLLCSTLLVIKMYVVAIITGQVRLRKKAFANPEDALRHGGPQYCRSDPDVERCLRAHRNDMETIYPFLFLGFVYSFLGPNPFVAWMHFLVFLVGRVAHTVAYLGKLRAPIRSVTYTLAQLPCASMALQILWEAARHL
# Assay summary: Inhibition of mPGES1 in human A549 cells assessed as reduction in PGE2 production
Quantity name: EC50 (nM)

CC1(C)Cc2c(-c3ccccc3)c(-c3ccc(Cl)cc3)c(CC(=O)O)n2C1    100

----------
Reported inhibition values follow for various compounds
# Target: Prostaglandin E synthase (Homo sapiens) (UniProt O14684)
# Assay summary: Inhibition of mPGES1 in human HeLa cells assessed as reduction in TNF-alpha induced PGE2 production at 50 uM preincubated for 2 hrs followed by TNF-alpha addition for 24 hrs by ELISA
# Assay type: cell-based
Quantity name: inhibition

COc1cc(-c2cc3cccc(O)c3c(=O)o2)ccc1O    75%
O=c1oc(-c2ccc(O)c(O)c2)cc2cccc(O)c12    74%
O=c1oc(-c2ccccc2)cc2ccccc12    75%
COc1ccc(-c2cc3ccccc3c(=O)o2)cc1O    18%
COc1ccc(-c2cc3cccc(O)c3c(=O)o2)cc1O    44%
COc1cc(-c2cc3ccccc3c(=O)o2)ccc1O    73%
O=c1oc(-c2ccccc2)cc2cccc(O)c12    60%
COc1cc(O)c2c(=O)oc(-c3cc(OC)c(OC)c(OC)c3)cc2c1    14%
O=c1oc(-c2ccc(O)cc2)cc2ccccc12    65%
O=c1oc(-c2ccc(O)c(O)c2)cc2ccccc12    78%
CC(c1cc2ccccc2s1)N(O)C(N)=O (configuration not stated)    50%
COc1cc(-c2cc3cccc(O)c3c(=O)o2)cc(OC)c1OC    68%

----------
Reported viability at 24 h, 50 µM values follow for various compounds
# Assay summary: Cytotoxicity against human HeLa cells assessed as cell proliferation at 50 uM after 24 hrs by MTT assay
# Type: toxicity, cell-based
# Details: read-out: Activity
Quantity name: viability at 24 h, 50 µM (%)

O=c1oc(-c2ccc(O)c(O)c2)cc2ccccc12    78.7
O=c1oc(-c2ccccc2)cc2cccc(O)c12    75.6
COc1cc(-c2cc3ccccc3c(=O)o2)ccc1O    65
COc1ccc(-c2cc3ccccc3c(=O)o2)cc1O    70.5
COc1cc(-c2cc3cccc(O)c3c(=O)o2)cc(OC)c1OC    80.2
O=c1oc(-c2ccc(O)c(O)c2)cc2cccc(O)c12    68.7
CC1(C)Cc2c(-c3ccccc3)c(-c3ccc(Cl)cc3)c(CC(=O)O)n2C1    85
COc1cc(O)c2c(=O)oc(-c3cc(OC)c(OC)c(OC)c3)cc2c1    60.5
COc1ccc(-c2cc3cccc(O)c3c(=O)o2)cc1O    77.4
O=c1oc(-c2ccc(O)cc2)cc2ccccc12    81.4
